Experimental Details: NCI Yeast Anticancer Drug Screen. Data for the cln2 rad14 strain (AID 165);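 further: 0% = growth equal to vehicle treated cultures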
Condition Info: S. cerevisiae cln2 rad14 strain, at 50.0 µM, active compounds read high
The panel holds about 79,000 compounds, 15% with a hit somewhere; the sample as a whole holds those more often. The source made the active and inactive calls. No stated cut-off is given here; in the data, active means growth inhibition above about 70%; inactive means the rest.
growth inhibition for assorted compounds

Completed entries (count: 8):
Reported growth inhibition for `COc1cccc(NC(N)=O)c1` : what is it?
-9.5% (inactive)

Same again, this time with NC1CCC2(O)c3ccccc3C2C1 (stereo not given)
18.9% (inactive)

Same again, this time with `CCOC(=O)Cc1csc2[n+]1C(=O)/C(=C/c1cccc(OC)c1O)S2`
-10.2% (inactive)

Same again, this time with O=CNCC(O)c1ccc2c(c1)[nH]c1ccccc12 (stereo not given)
-10.3% (inactive)

Same again, this time with `CCOC(=O)C(C)(C)c1ccc(OC)cc1`
-18.9% (inactive)

Same again, this time with `CC(=O)Nc1cccc(Cc2ccccc2)c1`
-67.2% (inactive)

Same again, this time with `CCCCCCCCCCCCCC(=O)Oc1ccc2ccccc2c1`
5.7% (inactive)

Same again, this time with `COc1ccc(CC2=c3cc(OC)c(OC)cc3=CCN2)cc1OC`
12.2% (inactive)

Turning to the following compound.
Reported growth inhibition for O=C(c1nc2ccc(Cl)cc2[nH]c1=O)C(O)c1ccccc1 (stereo not given) : what is it?
42.9% (inactive)

====

Experimental Details: NCI Yeast Anticancer Drug Screen. Data for the mec2-1 strain (AID 157)
Condition Info: S. cerevisiae mec2-1 strain, at 50.0 µM
Compounds without any hit were thinned out: in the full panel of roughly 79,000, 15% have a hit. Active and inactive are the calls of the source. No stated cut-off is given here; in the data, active means growth inhibition above about 70%; inactive means the rest.
In this exercise, the only acceptable responses are active, inactive

Worked examples follow.
How did this test come out for COc1ccc(C(=O)OC2CCCN(C(=O)c3ccc(OC)cc3)C2)cc1 (stereo unspecified) ?
inactive

Same again, this time with C=C1COC(/C=C(\C)CC/C=C(\C)CCl)C1 (stereo unspecified)
inactive

---
How did this test come out for `CC(=O)c1cc([N+](=O)[O-])c(O)c([N+](=O)[O-])c1O` ?
inactive

Same again, this time with `CC(=O)c1c(-c2ccccc2)noc1C`
inactive

Same again, this time with `CCOC(=O)c1sc2c(c1OC(=O)c1ccccc1)c(=O)n(-c1ccccc1)c(=S)n2-c1ccccc1`
inactive

====

Experimental Details: NCI Yeast Anticancer Drug Screen. Data for the mec2-1 strain (AID 157)
Condition Info: S. cerevisiae mec2-1 strain, at 50.0 µM, active compounds read high
About 79,000 compounds went through this panel and 15% of them were active in at least one assay; those are over-represented in the sample as a whole.
Think of -10% as a floor: if growth inhibition stands on it or above, it is met; beneath it, not met.

Hello, I need to know if `COc1c2cccc(Cl)c2cc2c(Cl)cccc12` has measured growth inhibition not below -10%. Thanks!
met

Same again, this time with `COc1ccc2c(C(=O)O)cc3c4ccccc4ncc3c2c1`
met

Same again, this time with `S=C(Nc1ccccc1)Nc1nc(-c2ccccc2)c(N=Nc2ccccc2)s1`
met

Same again, this time with CCN1C(=O)N(C)C(O)c2c1nc1ccccn1c2=O (configuration not stated)
met

Same again, this time with `CCCCc1ccc(-n2cnc3c(=O)[nH]c(N)nc32)cc1`
met

====

Experimental Details: NCI Yeast Anticancer Drug Screen. Data for the mec2-1 strain (AID 157)
Condition Info: S. cerevisiae mec2-1 strain, at 50.0 µM, active compounds read high
This is part of a sample that, as a whole, favours compounds with a hit. Of some 79,000 tested, about 15% had one in any assay.
Assay Metric: growth inhibition (%)
The figure you give is taken to be in %; do not add the unit.

Completed entries (count: 4):
Reported growth inhibition for `CCCCC(=O)OC[n+]1ccc2c(C)c3[nH]c4ccc(OC)cc4c3c(C)c2c1` : what is it?
91.8

Same again, this time with `[S-]c1n[n+](-c2ccccc2)c(-c2ccc(Cl)cc2)s1`
5.8

Same again, this time with COC(=O)c1cc(C(C)O)nc2ccccc12 (stereo not given)
3.95

Same again, this time with CC(C)=CCC/C(C)=C/CNc1ncnc2c1ncn2C1OC(CO)C(O)C1O (stereo not given)
13.7

Turning to the following molecule.
Reported growth inhibition for `O=C(O)C#Cc1cccnc1` : what is it?
-14

====

Experimental Details: NCI Yeast Anticancer Drug Screen. Data for the mec2-1 strain (AID 157)
Condition Info: S. cerevisiae mec2-1 strain, at 50.0 µM, active compounds read high
This is part of a sample that, as a whole, favours compounds with a hit. Of some 79,000 tested, about 15% had one in any assay.
Assay Metric: growth inhibition (%)
The figure you give is taken to be in %; do not add the unit.

Reported growth inhibition for O=S1(=O)C(c2ccccc2)C(N2CCCCC2)C1C1CC2c3ccccc3C1c1ccccc12 (stereo not given) : what is it?
32.6

Same again, this time with `CCNS(=O)(=O)c1ccccc1`
-29.2

Same again, this time with `O=S(=O)(Nc1ccccc1)c1cc(O)ccc1O`
-11.2

Same again, this time with `CC(C)(C)OC(=O)N1CCCC1=O`
13

Same again, this time with `Cc1nnnn1-c1ccc2ccccc2c1`
-24

---
Reported growth inhibition for `CCSc1nnc(-c2ccccc2)nc1Cc1ccc(OC)cc1` : what is it?
-13.2

Same again, this time with `Ic1ccc(N=Cc2cccs2)cc1`
-1.85

Same again, this time with O/N=C1/CC2(N3CCOCC3)C3CC/C(=N\O)C2CC1(Cc1ccccc1)C3 (stereo not given)
0.25

Same again, this time with CCOC(=O)C1SC(=Nc2ccc(OC)c(OC)c2)N=C1C (stereo not given)
4.2

Same again, this time with `O=C(Nc1ccc(Cl)cc1)Nc1nnc(-c2ccccc2Br)o1`
18.6

Same again, this time with `Cc1ccccc1NCc1ccccc1[N+](=O)[O-]`
11.1

Same again, this time with `O=C(CO)c1ccc([N+](=O)[O-])cc1`
34.3

Same again, this time with `CN(C)CSC(=S)NCCNC(=S)SCN(C)C`
-19.6

Same again, this time with `O=C(NCN1CCOCC1)Nc1ccc(Cl)cc1`
8.5

Same again, this time with `CCC(CCCCCc1ccccc1)(C(=O)O)C(=O)O`
10.8

====

Experimental Details: NCI Yeast Anticancer Drug Screen. Data for the rad50 strain (AID 155);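 further: 0% = growth of vehicle-only cultures of the same strain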
Condition Info: S. cerevisiae rad50 strain growth inhibition; at 50.0 µM; active compounds read high
Compounds without any hit were thinned out: in the full panel of roughly 79,000, 15% have a hit.
Assay Metric: growth inhibition (%)
The figure you give is taken to be in %; do not add the unit.

Completed entries (count: 3):
Reported growth inhibition for `COc1ccc(Nc2nc(C#N)c(N)s2)cc1` : what is it?
3.75

Same again, this time with CC(CC(=O)O)C1(C)C2CCCCC2C2CCCCC21 (centres undefined)
-6.2

Same again, this time with O=C(c1ccc(Br)cc1)C(C(c1ccccc1)N1CCOCC1)N1CCOCC1 (centres undefined)
3.1

Turning to the following compound.
Reported growth inhibition for `CCOP(=O)(OCC)/C(C#N)=C/c1cc(OC)ccc1OC` : what is it?
28.4

====

Experimental Details: NCI Yeast Anticancer Drug Screen. Data for the bub3 strain (AID 167)
Condition Info: S. cerevisiae bub3 mutant strain, at 50.0 µM, active compounds read high
Compounds without any hit were thinned out: in the full panel of roughly 79,000, 15% have a hit.
growth inhibition for assorted compounds
The figure you give is taken to be in %; do not add the unit.

Completed entries (count: 3):
Reported growth inhibition for `c1ccc(CCNCc2ccc(CNCCc3ccccc3)cc2)cc1` : what is it?
-0.25

Same again, this time with COc1ccc(CCN2C(CC(=O)c3ccccc3)CCCC2CC(=O)c2ccccc2)cc1 (configuration not stated)
-17.5

Same again, this time with `CCOc1ccc2c(c1)C(C)(C)CCC2(C)C`
1.4

---
Reported growth inhibition for `C=CCc1cc(C)ccc1OC(=O)c1cc([N+](=O)[O-])cc([N+](=O)[O-])c1` : what is it?
-6.6

Same again, this time with `Cc1oc2nc(N(C)C)nc(Cl)c2c1C`
22.1

Same again, this time with `c1ccc(-c2c(-c3cccs3)[nH]c(-c3cccs3)c2-c2ccccn2)nc1`
-6.6

====

Experimental Details: NCI Yeast Anticancer Drug Screen. Data for the mlh1 rad18 strain (AID 175)
Condition Info: S. cerevisiae mlh1 rad18 strain growth inhibition; at 50.0 µM
About 79,000 compounds went through this panel and 15% of them were active in at least one assay; those are over-represented in the sample as a whole. Activity calls are given as the source filed them. Rule as the data show it: active = growth inhibition above about 70%; inactive = the rest.
In this exercise, the only acceptable responses are yes = active, no = inactive

Worked examples follow.
How did this test come out for `C=C1C(=O)O[C@@H]2C3=C(C)C(=O)C=C[C@]3(C)CC[C@@H]12` ?
no

Same again, this time with NC(=O)NC(c1ccc(O)cc1)c1cc2c(cc1O)OCO2 (centres undefined)
no

Same again, this time with N#CC(c1ccccc1)C(c1ccccc1)c1cccc2ccccc12 (centres undefined)
no

Same again, this time with CCC1OC(=O)CC(O)C(C)C(OC2OC(C)CC(N(C)C)C2O)C(CC=O)CC(C)C(=O)/C=C/C2(C)OC2C1C (centres undefined)
no

Same again, this time with `O=C(O)c1ccncc1C(=O)c1csc2ccccc12`
no

---
How did this test come out for `Nc1nc(-c2ccc(S(=O)(=O)O)cc2)cc(=O)[nH]1` ?
no

Same again, this time with `O=C(NC(=S)Nc1cccc2ccccc12)c1ccccc1F`
no

Same again, this time with CCOC(=O)C1SC(=Nc2ccc(Cl)c(Cl)c2)N=C1C (centres undefined)
no

Same again, this time with `COc1cc(C(=O)O)ccc1OC(C)=O`
no

Same again, this time with `COC(=O)C1=CN(c2ccccc2)C(=O)C1`
no
